# Test system: Acinetobacter baumannii ATCC17961
# protocolSummary: Antimicrobial susceptibility testing: 90% growth inhibitory concentration (IC90) determination in Iso-Sensitest broth, OD600 growth
# Assay type: cell-based
# measurementConditions: Acinetobacter baumannii, ATCC17961, 16 h, strain ATCC 17961, OD600 growth over 16 h, read-out: A. baumannii ATCC 17961 IC90
Counter-ions that a name gives are not always drawn.
metricName: IC90 (nM)
Your answer should be a plain number; it is taken to be in nM.

Lookup: Consider the compound shown here: `O=C(c1ccc(Nc2nccn3c(-c4c[nH]nc4C(F)(F)F)cnc23)cc1Cl)N1CCN(C(=O)[C@H]2CCNC2)CC1` What is its recorded IC90?
Found: 232

Lookup: Consider the compound shown here: CCc1cc(Nc2nccn3c(-c4c[nH]nc4C(F)(F)F)cnc23)ccc1C(=O)NCCCCCCN [Example 336, hydrochloride] What is its recorded IC90?
Found: 152

Lookup: Consider the compound shown here: `CCNC(=O)c1ccc(Nc2nccn3c(-c4cn(CC#N)nc4C(F)(F)F)cnc23)cc1CC` What is its recorded IC90?
Found: 234

Lookup: Consider the compound shown here: `CCc1cc(Nc2nccn3c(-c4cn(CC(F)F)nc4C(F)(F)F)cnc23)ccc1C(=O)N[C@H](C)CNC(=O)[C@@H]1C[C@@H](O)CN1` What is its recorded IC90?
Found: 340

Lookup: Consider the compound shown here: `O=C(NCC(=O)N1CCNCC1)c1ccc(Nc2nccn3c(-c4c[nH]nc4C(F)(F)F)cnc23)cc1Cl` What is its recorded IC90?
Found: 1220

Lookup: Consider the compound shown here: `N#CCn1cc(-c2cnc3c(Nc4ccc(C(=O)NCCNCC(=O)N[C@H]5CCNC5)c(Cl)c4)nccn23)c(C(F)(F)F)n1` What is its recorded IC90?
Found: 180

Lookup: Consider the compound shown here: CCc1cc(Nc2nccn3c(-c4cn(CC(F)F)nc4C(F)(F)F)cnc23)ccc1C(=O)NCCNC(=O)[C@H]1CC[C@@H](N)C1 [Example 495, formate] What is its recorded IC90?
Found: 173

Lookup: Consider the compound shown here: `NC1CCN(C(=O)c2ccc(Nc3nccn4c(-c5c[nH]nc5C(F)(F)F)cnc34)cc2Cl)CC1` What is its recorded IC90?
Found: 411

Lookup: Consider the compound shown here: `N#CCn1cc(-c2cnc3c(Nc4ccc(C(=O)N5CCNCC5)c(Cl)c4)nccn23)c(C(F)(F)F)n1` What is its recorded IC90?
Found: 88

Lookup: Consider the compound shown here: `O=C(c1ccc(Nc2nccn3c(-c4c[nH]nc4C(F)(F)F)cnc23)cc1Cl)N1CCN(C(=O)[C@]2(O)CCCNC2)CC1` What is its recorded IC90?
Found: 116

Lookup: Consider the compound shown here: CCc1cc(Nc2nccn3c(-c4cn(COC)nc4C(F)F)cnc23)ccc1C(=O)N1CCN(C(=O)C2CC(O)CN2)CC1 (centres unmarked) What is its recorded IC90?
Found: 2360

Lookup: Consider the compound shown here: `N#CCn1cc(-c2cnc3c(Nc4ccc(C(=O)N5CC(N)C5)c(Cl)c4)nccn23)c(C(F)(F)F)n1` What is its recorded IC90?
Found: 100

Lookup: Consider the compound shown here: NCC(=O)N1CCN(C(=O)c2ccc(Nc3nccn4c(-c5cn(CC6CC6)nc5C(F)(F)F)cnc34)cc2F)CC1 [Example 814, hydrochloride] What is its recorded IC90?
Found: 140

Lookup: Consider the compound shown here: `O=C(CNCCNC(=O)c1ccc(Nc2nccn3c(-c4cn(CC(F)F)nc4C(F)(F)F)cnc23)cc1Cl)N[C@H]1CCNC1` What is its recorded IC90?
Found: 150

Lookup: Consider the compound shown here: `Cc1cc(Nc2nccn3c(-c4cn(CCF)nc4C(F)(F)F)cnc23)ccc1C(=O)NCCOCCN` What is its recorded IC90?
Found: 198

Lookup: Consider the compound shown here: `Cc1cc(Nc2nccn3c(-c4cn(CCF)nc4C(F)(F)F)cnc23)cc(F)c1C(=O)N1CCNCC1` What is its recorded IC90?
Found: 687

Lookup: Consider the compound shown here: `Cc1cc(Nc2nccn3c(-c4cn(CC(F)F)nc4C(F)(F)F)cnc23)cc(F)c1C(=O)N1CCN(C(=O)[C@H]2C[C@@H](N)C2)CC1` What is its recorded IC90?
Found: 382

Lookup: Consider the compound shown here: `CCc1cc(Nc2nccn3c(-c4cn(CC#N)nc4Cl)cnc23)ccc1C(=O)NCCOCCN` What is its recorded IC90?
Found: 460

Lookup: Consider the compound shown here: `C#CCNCCCCNC(=O)c1c(C)cc(Nc2nccn3c(-c4c[nH]nc4C(F)(F)F)cnc23)cc1F` What is its recorded IC90?
Found: 1210

Lookup: Consider the compound shown here: `CCc1cc(Nc2nccn3c(-c4cn(CCF)nc4C(F)(F)F)cnc23)ccc1C(=O)NCCOC[C@@H](C)N` What is its recorded IC90?
Found: 173
